- System: SJSA-1 cells
- measurement_protocol: Cell lysis by peptidomimetic macrocycles (LDH release)
- Type: cell-based
- conditions: 50 μM, SJSA-1, 1 h
Bridge positions count the residues as written; N and C are the ends. Square brackets hold non-standard residues; d marks the D form. Peptide text beside a SMILES is read from it. R8 = C=CCCCCCC[C@@](C)(N)C(=O)O; S5 = C=CCCC[C@](C)(N)C(=O)O

{"columns": ["compound", "target", "50 μM % Lysed cells (1 h LDH) [%]"],
 "data": [
  ["CC(=O)N[C@@H](CC(C)C)C(=O)N[C@H](C(=O)N[C@@H](Cc1ccccc1)C(=O)N[C@]1(C)CCCCCCC=CCCC[C@@](C)(C(=O)N[C@@H](CO)C(=O)N[C@@H](C)C(=O)N[C@@H](C)C(N)=O)NC(=O)[C@H](CC2CCCCC2)NC(=O)[C@H](CCC(N)=O)NC(=O)[C@H](C)NC(=O)[C@H](Cc2c[nH]c3ccccc23)NC(=O)[C@H](Cc2ccc(O)cc2)NC(=O)[C@H](CCC(=O)O)NC1=O)[C@@H](C)O (single isomer, unassigned)", "SJSA-1 cells", 0],
  ["CC[C@H](C)[C@H](NC(=O)[C@H](C)NC(=O)[C@H](CO)NC(=O)[C@]1(C)CCCC=CCCCCCC[C@@](C)(NC(=O)[C@H](Cc2ccccc2)NC(=O)[C@@H](NC(=O)[C@H](CC(C)C)NC(C)=O)[C@@H](C)O)C(=O)N[C@@H](C)C(=O)N[C@@H](Cc2ccc(O)cc2)C(=O)N[C@@H](Cc2c[nH]c3ccccc23)C(=O)N[C@@H](C)C(=O)N[C@@H](CCC(N)=O)C(=O)N[C@@H](CC(C)C)C(=O)N1)C(N)=O [compound 8] (Ac-LTF[R8]AYWAQL[S5]SAI-NH2; staple 4-11)", "SJSA-1 cells", 1]
]}

---

- Tested on: SJSA-1 cells
- measurement_protocol: Cell lysis by peptidomimetic macrocycles (LDH release)
- Type: cell-based
- conditions: 25 μM, SJSA-1, 1 h

{"columns": ["molecule", "25 μM % Lysed cells (1 h LDH), %"],
 "data": [
  ["CC(C)CC[C@@H]1NC(=O)[C@H](CCC(N)=O)NC(=O)[C@H](C)NC(=O)[C@H](Cc2c[nH]c3ccccc23)NC(=O)[C@H](Cc2ccc(O)cc2)NC(=O)[C@H](CCC(=O)O)NC(=O)[C@](C)(NC(=O)[C@H](Cc2ccccc2)NC(=O)[C@@H](NC(=O)[C@H](CC(C)C)NC(=O)C(C)(C)C)[C@@H](C)O)CCCCCCC=CCCC[C@@](C)(C(=O)N[C@@H](CO)C(=O)N[C@@H](C)C(=O)N[C@@H](C)C(N)=O)NC1=O", 5],
  ["CC[C@H](C)[C@H](NC(=O)[C@H](C)NC(=O)[C@H](C)NC(=O)[C@]1(C)CCCC=CCCCCCC[C@@](C)(NC(=O)[C@H](Cc2ccccc2)NC(=O)[C@@H](NC(=O)[C@H](CC(C)C)NC(C)=O)[C@@H](C)O)C(=O)N[C@@H](C)C(=O)N[C@@H](Cc2ccc(O)cc2)C(=O)N[C@@H](Cc2c[nH]c3ccccc23)C(=O)N[C@@H](C)C(=O)N[C@@H](CCC(N)=O)C(=O)N[C@@H](CC(C)C)C(=O)N1)C(=O)N[C@@H](C)C(N)=O (single isomer, unassigned)", 0]
]}
